# assayed system: human metabotropic Glutamate 4 receptor (Homo sapiens)
# Construct: expressed in transfected cells; host or cells: HEK293
# Sequence (Q14833 33-912): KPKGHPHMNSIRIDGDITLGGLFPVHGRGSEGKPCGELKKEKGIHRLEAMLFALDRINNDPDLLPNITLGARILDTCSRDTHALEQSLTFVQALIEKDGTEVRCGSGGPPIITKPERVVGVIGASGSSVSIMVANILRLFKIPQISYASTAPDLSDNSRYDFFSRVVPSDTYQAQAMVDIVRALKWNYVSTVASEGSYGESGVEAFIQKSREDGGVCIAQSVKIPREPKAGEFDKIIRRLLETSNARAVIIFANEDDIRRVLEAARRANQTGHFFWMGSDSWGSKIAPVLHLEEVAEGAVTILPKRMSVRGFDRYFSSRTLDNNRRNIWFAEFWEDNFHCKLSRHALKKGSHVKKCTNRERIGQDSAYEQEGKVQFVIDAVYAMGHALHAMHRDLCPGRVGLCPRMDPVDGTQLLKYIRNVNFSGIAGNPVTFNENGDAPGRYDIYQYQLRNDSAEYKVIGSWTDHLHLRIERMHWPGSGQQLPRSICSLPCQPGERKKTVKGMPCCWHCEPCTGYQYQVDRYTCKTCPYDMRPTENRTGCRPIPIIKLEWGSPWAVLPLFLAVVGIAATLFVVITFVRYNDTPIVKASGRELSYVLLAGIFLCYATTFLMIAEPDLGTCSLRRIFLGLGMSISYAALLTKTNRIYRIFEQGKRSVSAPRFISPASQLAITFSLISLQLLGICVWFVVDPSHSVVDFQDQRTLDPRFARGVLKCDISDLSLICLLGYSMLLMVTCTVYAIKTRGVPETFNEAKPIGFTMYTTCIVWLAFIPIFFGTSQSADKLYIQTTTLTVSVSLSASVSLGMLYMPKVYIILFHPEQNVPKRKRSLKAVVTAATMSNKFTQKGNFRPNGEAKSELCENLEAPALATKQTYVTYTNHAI
# test method notes: In vitro testing of mGluR4 potency (Assay A), cAMP HTRF in HEK293 cells
# Assay type: cell-based
# condition parameters: Table 2; HEK293 cell overexpressing human mGluR4; 10 uM L-Glutamic acid, 1 uM forskolin
measurement kind: IC50 (nM)

- Cc1cnc(C(=O)N[C@H](c2nc3c(C)nc(C(F)(F)F)cc3n2C(C)C)C2CC2)cn1: 13
- Cc1cnc(C(=O)N[C@@H](CC2CC2)c2nc3cc(C#N)c(C)nc3n2C(C)C)cn1: 15
- CCn1c([C@@H](NC(=O)c2cnc(C(F)F)cn2)C2CC2)nc2cc(C(F)(F)F)ncc21: 48
- Cc1c(C#N)cnc2c1nc([C@@H](NC(=O)c1cnc(C(F)F)cn1)C1(O)CCC1)n2C(C)C: 13
- Cc1c(C#N)cnc2c1nc([C@@H](NC(=O)c1cnc(C(F)F)cn1)[C@H]1CCCO1)n2C(C)C: 7
- Cc1cnc(C(=O)N[C@H](c2nc3cnc(C(F)(F)F)cc3n2C(C)C)C2CC2)cn1: 24
- O=C(N[C@H](c1nc2cnc(C(F)(F)F)cc2n1CC(F)F)C1CC1)c1cnc(C(F)F)cn1: 41
- COC(C)(C)[C@H](NC(=O)c1cnc(C)cn1)c1nc2cc(Cl)cnc2n1C(C)C: 3

---

# assayed system: human metabotropic Glutamate 4 receptor (Homo sapiens)
# Construct: expressed in transfected cells; host or cells: HEK293
# test method notes: In vitro testing of mGluR4 potency (Assay A), cAMP HTRF in HEK293 cells
# Assay type: cell-based
# condition parameters: Table 2; HEK293 cell overexpressing human mGluR4; 10 uM L-Glutamic acid, 1 uM forskolin
measurement kind: log10(IC50) (log10 of the value in nM)

- Cc1cnc(C(=O)N[C@@H](CC2CC2)c2nc3cc(C(F)(F)F)cnc3n2C(C)C)cn1: 0.30
- COc1c(Br)cnc2c1nc([C@@H](NC(=O)c1cnc(C)cn1)C1CC1)n2C(C)C: 0.30
- COC(C)(C)[C@H](NC(=O)c1cnc(C)cn1)c1nc2cccnc2n1C(C)C: 1.28
- Cc1c(C#N)cnc2c1nc([C@H](CC1CC1)NC(=O)c1cnc(C(F)F)cn1)n2C(C)C: 0.60
- COC(C)(C)[C@H](NC(=O)c1cnc(C)cn1)c1nc2c(C)c(C#N)cnc2n1C(C)C: 0.30
- Cc1cnc(C(=O)N[C@H](c2nc3c(C)c(C#N)cnc3n2C(C)C)[C@H]2CCCO2)cn1: 1.32
- CC(C)n1c([C@@H](NC(=O)c2cnc(C(F)F)cn2)C2CCC2)nc2cc(C#N)cnc21: 1.15
- Cc1cnc(C(=O)N[C@H](c2nc3cnc(C(F)(F)F)cc3n2C(C)C)[C@@H]2COCCO2)cn1: 1.90
- CO[C@H](C)[C@H](NC(=O)c1cnc(C)cn1)c1nc2c(C)c(C#N)cnc2n1C(C)C: 1.32

---

# assayed system: human metabotropic Glutamate 4 receptor (Homo sapiens)
# Construct: expressed in transfected cells; host or cells: HEK293
# test method notes: In vitro testing of mGluR4 potency (Assay A), cAMP HTRF in HEK293 cells
# Type: cell-based
# condition parameters: Table 2; HEK293 cell overexpressing human mGluR4; 10 uM L-Glutamic acid, 1 uM forskolin
# Protocol: A. In Vitro Testing of mGluR4 Potency The in vitro activity of the compounds according to the invention may be investigated as follows: The HEK293 cell overexpressing the human metabotropic Glutamate 4 receptor were thawed at 37° C. and immediately diluted with cell culture medium. […] The emission at 615 nm and 665 nm (Excitation wavelength: 320 nm) are measured on the EnVision™ reader (PerkinElmer). The ratio between the emission at 665 nm and 615 is calculated by the reader. […]
IC50: recorded values
measurement kind: IC50 (nM)

• CO[C@@H](C)[C@H](NC(=O)c1cnc(C)cn1)c1nc2cc(Cl)cnc2n1C(C)C = 10
• Cc1c(C#N)cnc2c1nc([C@@H](NC(=O)c1cnc(C(F)F)cn1)C1CC1)n2C(C)C = 2
• Cc1cnc(C(=O)N[C@H](c2nc3c(C)c(C#N)cnc3n2C(C)C)C2CC2)cn1 = 6
• Cc1cnc(C(=O)N[C@@H](CC2CC2)c2nc3c(C)c(C#N)cnc3n2C(C)C)cn1 = 5
• CO[C@H](C)[C@H](NC(=O)c1cnc(C(F)F)cn1)c1nc2c(C)c(C#N)cnc2n1C(C)C = 8
• Cc1cnc(C(=O)N[C@H](c2nc3c(C)nc(C(F)(F)F)cc3n2CC(F)F)C2CC2)cn1 = 21
• CC(C)n1c([C@@H](NC(=O)c2cnc(C(F)F)cn2)C2CC2)nc2cc(F)cnc21 = 15
• CCn1c([C@@H](NC(=O)c2cnc(C(F)F)cn2)C2CC2)nc2cnc(C(F)(F)F)cc21 = 53
